# protocol_text: IV pharmacokinetics in male SD rats
# Assay type: in vivo, rat
# setup_conditions: male, Sprague-Dawley, rat, plasma, iv, 3 mg/kg, IV 3 mpk, ± one standard deviation, read-out: IV clearance 3 mpk
Exercise: for every item that follows, state its recorded clearance.
One number for each entry, in mL/min/kg.

Please state clearance for every molecule in the list that follows.
1. Cc1cnc(-c2ccnc(C(C)(C)O)n2)cc1-n1c(C)cc(OCc2ccn(C)n2)c(Cl)c1=O
2. [2H]C([2H])(Oc1cc(C)n(-c2cc(-c3ccnc(C(C)(C)O)n3)ncc2C)c(=O)c1Cl)c1ccn(C)n1 (single isomer, unassigned) [Example 3-D2]

8
9

---

# protocol_text: IV pharmacokinetics in male SD rats
# Format: in vivo, rat
# setup_conditions: male, Sprague-Dawley, rat, plasma, iv, 1 mg/kg, IV 1 mpk, ± one standard deviation, read-out: IV clearance 1 mpk
test_readout: clearance (mL/min/kg)
One number for each entry, in mL/min/kg.

molecule	clearance (mL/min/kg)
[2H]C([2H])(Oc1cc(C)n(-c2cc(-c3ccnc(C(C)(C)O)n3)ncc2C)c(=O)c1Cl)c1ccn(C)n1 (single isomer, unassigned) [Example 3-D2]	13
Cc1cnc(-c2ccnc(C(C)(C)O)n2)cc1-n1c(C)cc(OCc2ccccc2)c(Cl)c1=O	15
[2H]C([2H])(Oc1cc(C)n(-c2cc(-c3ccnc(C(C)(C)O)n3)ncc2C)c(=O)c1Cl)c1ccccc1 (single isomer, unassigned) [Example 5-D2]	13

Please look at the items below and tell me clearance for each one, in order.
1. Cc1cnc(-c2ccnc(C(C)(C)O)n2)cc1-n1c(C)cc(OCc2ccn(C)n2)c(Cl)c1=O
2. [2H]C([2H])([2H])C(O)(c1nccc(-c2cc(-n3c(C)cc(OCc4ncc(F)cc4F)c(Cl)c3=O)c(C)cn2)n1)C([2H])([2H])[2H] (single isomer, unassigned)
3. [2H]C([2H])(Oc1cc(C)n(-c2cc(-c3ccnc(C(C)(C)O)n3)ncc2C)c(=O)c1Cl)c1cccc(OC)c1 (single isomer, unassigned) [Example 9-D2]
4. [2H]C([2H])(Oc1cc(C)n(-c2cc(-c3ccnc(C(C)(C)O)n3)ncc2C)c(=O)c1Cl)c1ccc(F)cc1F (single isomer, unassigned) [Example 11-D2]
5. [2H]C([2H])(Oc1cc(C)n(-c2cc(-c3ccnc(C(C)(C)O)n3)ncc2C)c(=O)c1Cl)c1ncc(F)cc1F (single isomer, unassigned) [Example 1-D2]
6. [2H]C([2H])(Oc1cc(C)n(-c2cc(-c3ccnc(C(C)(C)O)n3)ncc2C)c(=O)c1Cl)c1cccc(C(F)(F)F)c1 (single isomer, unassigned) [Example 7-D2]

1. 9
2. 25
3. 18
4. 25
5. 9.5
6. 6

# per-item lookup of clearance; items listed below
1. COc1cccc(COc2cc(C)n(-c3cc(-c4ccnc(C(C)(C)O)n4)ncc3C)c(=O)c2Cl)c1
2. Cc1cnc(-c2ccnc(C(C)(C)O)n2)cc1-n1c(C)cc(OCc2cccc(C(F)(F)F)c2)c(Cl)c1=O

12
3.1

---

# protocol_text: IV pharmacokinetics in male SD rats
# Assay type: in vivo, rat
# setup_conditions: male, Sprague-Dawley, rat, plasma, iv, 0.3 mg/kg, IV 0.3 mpk, ± one standard deviation, read-out: IV clearance 0.3 mpk
test_readout: clearance (mL/min/kg)
Numbers only, in mL/min/kg.

// returns reported clearance for input [2H]C([2H])(Oc1cc(C)n(-c2cc(-c3ccnc(C(C)(C)O)n3)ncc2C)c(=O)c1Cl)c1ncc(F)cc1F (single isomer, unassigned) [Example 1-D2]
12

---

I'd be grateful if you could share measured clearance for these entries.
# protocol_text: IV pharmacokinetics in male SD rats
# Type: in vivo, rat
# setup_conditions: male, Sprague-Dawley, rat, plasma, iv, 0.1 mg/kg, IV 0.1 mpk, ± one standard deviation, read-out: IV clearance 0.1 mpk
One number for each entry, in mL/min/kg.

Check out these entries, answers already filled in.
compound	units_label	clearance
Cc1cnc(-c2ccnc(C(C)(C)O)n2)cc1-n1c(C)cc(OCc2cccc(C(F)(F)F)c2)c(Cl)c1=O	mL/min/kg	7
[2H]C([2H])(Oc1cc(C)n(-c2cc(-c3ccnc(C(C)(C)O)n3)ncc2C)c(=O)c1Cl)c1cccc(OC)c1 (single isomer, unassigned) [Example 9-D2]	mL/min/kg	17
Cc1cnc(-c2ccnc(C(C)(C)O)n2)cc1-n1c(C)cc(OCc2ccn(C)n2)c(Cl)c1=O	mL/min/kg	13
[2H]C([2H])(Oc1cc(C)n(-c2cc(-c3ccnc(C(C)(C)O)n3)ncc2C)c(=O)c1Cl)c1ccccc1 (single isomer, unassigned) [Example 5-D2]	mL/min/kg	18

Please report clearance for every entry that follows.
1. [2H]C([2H])(Oc1cc(C)n(-c2cc(-c3ccnc(C(C)(C)O)n3)ncc2C)c(=O)c1Cl)c1ncc(F)cc1F (single isomer, unassigned) [Example 1-D2]
2. Cc1cnc(-c2ccnc(C(C)(C)O)n2)cc1-n1c(C)cc(OCc2ccccc2)c(Cl)c1=O
3. [2H]C([2H])(Oc1cc(C)n(-c2cc(-c3ccnc(C(C)(C)O)n3)ncc2C)c(=O)c1Cl)c1ccn(C)n1 (single isomer, unassigned) [Example 3-D2]

[16, 16, 12]

Please report clearance for every entry that follows.
1. [2H]C([2H])(Oc1cc(C)n(-c2cc(-c3ccnc(C(C)(C)O)n3)ncc2C)c(=O)c1Cl)c1cccc(C(F)(F)F)c1 (single isomer, unassigned) [Example 7-D2]
2. COc1cccc(COc2cc(C)n(-c3cc(-c4ccnc(C(C)(C)O)n4)ncc3C)c(=O)c2Cl)c1

1. 4.9
2. 16

---

# protocol_text: PO pharmacokinetics in male SD rats
# Type: in vivo, rat
# setup_conditions: Sprague-Dawley, rat, plasma, 2 mg/kg, PO 2 mpk, ± one standard deviation, read-out: AUC0-10 hr
test_readout: AUC(0-t) (ng·h/mL)
Answers are plain numbers, in ng·h/mL.

Please give the measured AUC(0-t) for this compound: [2H]C([2H])(Oc1cc(C)n(-c2cc(-c3ccnc(C(C)(C)O)n3)ncc2C)c(=O)c1Cl)c1ncc(F)cc1F (single isomer, unassigned) [Example 1-D2]
2020
